Recorded measurements of VEGF-E-mediated Survival % Inhibition (n = 1), one per entry
ASSAY_SYSTEM: KDR endogenously expressed on human umbilical vein endothelial cells (HUVEC) (human, UniProt P35968 20-1356); note: test concentration or dose not given here
Sequence (P35968 20-1356): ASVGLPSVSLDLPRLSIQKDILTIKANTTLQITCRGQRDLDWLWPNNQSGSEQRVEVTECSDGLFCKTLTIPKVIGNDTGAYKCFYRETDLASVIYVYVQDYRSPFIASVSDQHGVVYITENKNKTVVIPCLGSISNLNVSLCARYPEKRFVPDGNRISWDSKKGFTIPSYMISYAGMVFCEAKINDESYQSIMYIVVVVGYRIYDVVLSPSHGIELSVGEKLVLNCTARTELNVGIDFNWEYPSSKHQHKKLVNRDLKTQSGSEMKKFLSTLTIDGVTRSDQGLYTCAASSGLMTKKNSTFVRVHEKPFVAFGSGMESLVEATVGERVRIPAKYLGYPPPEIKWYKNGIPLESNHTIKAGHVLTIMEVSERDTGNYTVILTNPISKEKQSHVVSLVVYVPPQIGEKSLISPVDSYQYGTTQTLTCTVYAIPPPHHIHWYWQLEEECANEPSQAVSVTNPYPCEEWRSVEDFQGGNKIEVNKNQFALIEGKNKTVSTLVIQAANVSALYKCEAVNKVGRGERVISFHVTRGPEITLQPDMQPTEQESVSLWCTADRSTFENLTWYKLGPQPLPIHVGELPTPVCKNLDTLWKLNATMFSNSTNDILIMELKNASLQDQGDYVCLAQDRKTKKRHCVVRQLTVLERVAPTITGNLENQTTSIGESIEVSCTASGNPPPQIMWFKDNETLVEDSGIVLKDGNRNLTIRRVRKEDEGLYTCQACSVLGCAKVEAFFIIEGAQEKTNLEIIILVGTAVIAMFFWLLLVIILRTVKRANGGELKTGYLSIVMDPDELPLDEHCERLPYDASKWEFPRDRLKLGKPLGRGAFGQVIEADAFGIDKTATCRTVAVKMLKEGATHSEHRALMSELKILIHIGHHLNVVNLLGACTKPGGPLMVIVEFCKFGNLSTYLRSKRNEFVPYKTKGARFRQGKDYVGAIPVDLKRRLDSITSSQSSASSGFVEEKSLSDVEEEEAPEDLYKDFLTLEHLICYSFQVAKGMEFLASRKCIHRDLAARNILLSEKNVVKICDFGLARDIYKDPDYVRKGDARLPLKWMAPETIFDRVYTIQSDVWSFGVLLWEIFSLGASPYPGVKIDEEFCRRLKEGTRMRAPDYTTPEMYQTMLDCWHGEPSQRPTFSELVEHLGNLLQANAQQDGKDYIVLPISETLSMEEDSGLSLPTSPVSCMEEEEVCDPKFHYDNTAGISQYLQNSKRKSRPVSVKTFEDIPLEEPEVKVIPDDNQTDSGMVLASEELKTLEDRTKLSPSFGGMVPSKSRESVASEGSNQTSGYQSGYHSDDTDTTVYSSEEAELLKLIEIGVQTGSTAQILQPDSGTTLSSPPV
TEST_SUMMARY: cell-based or functional assay
Write the answer as a number in %, unit excluded.

Exercise: What value of VEGF-E-mediated Survival % Inhibition (n = 1) has been recorded for this entry: 30A1 (antibody, V domains shown, Fully human mAb from XenoMouse hybridoma, tested as hybridoma supernatant) VH: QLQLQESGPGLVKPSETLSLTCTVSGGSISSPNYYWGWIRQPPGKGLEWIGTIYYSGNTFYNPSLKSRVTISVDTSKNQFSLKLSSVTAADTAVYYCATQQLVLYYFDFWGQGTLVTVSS VL: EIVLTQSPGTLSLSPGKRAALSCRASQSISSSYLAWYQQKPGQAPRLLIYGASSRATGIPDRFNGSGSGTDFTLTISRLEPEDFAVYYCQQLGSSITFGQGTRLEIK
Solution: 58

Exercise: // returns reported VEGF-E-mediated Survival % Inhibition (n = 1) for input 32F4 (antibody, V domains shown, Fully human mAb from XenoMouse hybridoma, tested as hybridoma supernatant) VH: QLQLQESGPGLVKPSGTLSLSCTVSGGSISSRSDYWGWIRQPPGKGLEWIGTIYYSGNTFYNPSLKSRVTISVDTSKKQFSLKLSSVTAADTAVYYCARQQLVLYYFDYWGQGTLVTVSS VL: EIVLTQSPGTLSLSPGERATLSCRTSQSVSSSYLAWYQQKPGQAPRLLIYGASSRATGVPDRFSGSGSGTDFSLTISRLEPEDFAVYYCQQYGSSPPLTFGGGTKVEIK
Solution: 64

Exercise: Using the record for 32G7 (antibody, V domains shown, Fully human mAb from XenoMouse hybridoma, tested as hybridoma supernatant) VH: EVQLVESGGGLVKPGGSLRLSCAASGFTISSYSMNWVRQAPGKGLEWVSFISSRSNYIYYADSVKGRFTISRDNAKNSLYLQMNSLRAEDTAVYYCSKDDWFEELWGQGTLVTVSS VL: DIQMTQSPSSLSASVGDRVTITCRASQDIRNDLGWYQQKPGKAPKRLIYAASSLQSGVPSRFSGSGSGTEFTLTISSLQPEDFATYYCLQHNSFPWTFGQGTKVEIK , report its VEGF-E-mediated Survival % Inhibition (n = 1).
Solution: 69
